assay: yeast display, Sf9 membrane polyspecificity reagent, FACS + sequencing; frameworks hold sequencing errors
Measurement Kind: polyreactivity (PSR sort gate)

QVQLVESGGGLVQAGGSLRLSCAASGRTFDAYAMGRYRQAPGKERELVARITSGGSTKYADSVKGRFTISRDNAKNTVYLQMNSLKPEDTAVYYCAAAQYWPSFFSNRVYYRNDYWGQGTQVTVSS	high polyreactivity
QVQLVESGGGLVQAGGSLRLSCAASGSTFKWYTMGWYRQAPGNEREFVAAISSSGGRTYYADSVKGRFTISRDNAKNTDYLQMNCLKPEDTAVYFCAAGYLYQFRAATFGYWGQGTQVTVSS	high polyreactivity

* * *

assay: yeast display, Sf9 membrane polyspecificity reagent, FACS + sequencing; frameworks hold sequencing errors
Measurement Kind: polyreactivity (PSR sort gate)

QFPLVESAGGLGQAGGTLRLTWAASGLSFGANTLGWYRHAPGKERELVAALTISGGITHYADSVKGRFTISRDNANNTVYVQIKSLQPEDTAVYYCAAGAYWRLYPYRQRNGGRMYYWGQGTQVTVSS	low polyreactivity
QVQLVESGGGLVQAGGSLRLSCAASGYIFVWYDMGWYRHAPGKERELVAAITWSGGSTYADSVKGRFTISRDNAKNTVYLQMNSLIPEDTAVDYCNADNNLDVYVDYGFNYWGQGTQVTVSS	low polyreactivity

* * *

test: yeast display, Sf9 membrane polyspecificity reagent, FACS + sequencing; frameworks hold sequencing errors
Measurement Kind: polyreactivity (PSR sort gate)

QVQLVESGGGLVQAGGSLRLSCAASGSTFNYNAMGWYRQAPGKERELVAAISSGASTNYADSVKGRFTISRDNAKNTVYLQMNSLKPEDTAVYYCAARSRTPGWYSTISRKMYWGQGTQVTVSS	high polyreactivity
QVQLVESGGGLVQAGGSLRLSCAASGSIIGVNAMGWYRQAPGKERELVAAMSSTGGSTYYADSVKGRFSISRDNAKNTVFLQMNRLKPEDTAVYYCHTDYSKSIGDGYAGFDYWGQGTQVTVSS	low polyreactivity
QVQLVDSAGVLVQAGGSLSLICAASGRTYGIYAMGWYRQAPGKERELVADISSDASTSYAYSVKGRFTISRDNAKNTVYLQMNSLKAEDTAVYYCAADPGPYYDWGYYYWGQGTQVTVSS	low polyreactivity
QVQLVESGGGLVPAGGSLRLSCAASGRIFVVYSMGWYRQAPGKERELVASISGGSTNYADSVKGRFTISRDNAKNTVYLQMNSLKPEDTAVYFCGMEYWGQGTQVTVSS	low polyreactivity
QVQLVESGGGLVQAGGSLRLSCAASGSTFNANAMGWYRQAPGKERELVAGISSGGSTYADSVKGRFTISRDNAKNTVYLKMNSLKPEDTAVYYCNADFYSWYPTFYWYDYWGQGTQVTVSS	high polyreactivity

State recorded polyreactivity (PSR sort gate) for all listed sequences.
1. QVQLVESGGGLVKAGGSLRLSCAASGSIFDGNAMGWYRQAPGKERELVADISRGGSTYYADSVKGRFTISRDNAKNTVYLLMNSLKPEDTAVYYCNVEFFFWPYEYGYWGQGTQVTVSS
2. QVQHVESGGGLVQAGGSLRLICAASGITFYFNAMGWYRQAPGKERELVAAISRPGGSTYYADSVKGRFTISRDNAKNTVYLQMNSLKPEDTAVYYCAAEAYFELSGGGLEYGYDYWGQGTQVTVSS
3. QVQLVESGGGLVQAGGSLRLSCAASGRTFTWYAMGWYRQAPGKERELVAAITNGGRRYADSVKGRFTISRDNAKTTVYLQMNSLKPEDTAVYYCATQPLTWSSYRWDWRAQFDHWGQGTQVTVSS
4. QDQLVESWVGLVQAGGSLRLSYAASGYIIKYNAMGRYRHAPRKERELVAAISSIGGRTYYADSVKARFTISRDNAKNNVYLQINILKPEDTAVYYFNAVGGRYTGWRYDYWGQGTQVTVSS

Result:
1. low polyreactivity
2. high polyreactivity
3. low polyreactivity
4. high polyreactivity

State recorded polyreactivity (PSR sort gate) for all listed sequences.
1. QVQLVESGGGLVQAGGSLRLSCAASGYIFTYNALGWSRQAPGKDRELVAAISSGHGRTYYADSVKGRFTISRDHAQNTVDLEMNSLKPEDTAVYYCNASRVVYRQAYLYGYDYWGQGTQVTVSS
2. QVQLVESGGGLVQAGGSLRLSCAASGSIFNEYAMGCYRQAPGKERELVAAISTSGDITYYADSVKGRFTISRDNAKNTVDLQMNSLKPEDTAVYYCAAKYSLLRQYNRLDSWGQGTQVTVSS

Result:
1. low polyreactivity
2. low polyreactivity

* * *

test: yeast display, Sf9 membrane polyspecificity reagent, FACS + sequencing; frameworks hold sequencing errors
Measurement Kind: polyreactivity (PSR sort gate)

Solved cases (4 shown):
QVQLVESGGGLVQAGGSLRLSCAASGSILGTYAMGWYRQAPGKERELVARISRGGSTNYADSVKGRFTISRDNAKNTVYLQMNILKPEDTAVYYCAKRLYLPESWRYYYWGQGTQVTVSS	high polyreactivity
QVQLVESGGGLVQAGGSLRLSCAASGLTSYDYGMGWYRQAPGKERELVAAITWSGGSTYYADSVKGRFTISRDNAKNTVYLEMHSLKPEDTAVYYCAAESWGYGWYGYWGQGNQVTVSS	low polyreactivity
QVQLVESGGGLVQAGGSLRLSCAASGLTFYYYAMGWYRQAPGIEREFVAAINWDGGSTYYADSVKGRFTISRDKAKNTVYLQMNSLKPEDTAVYYCATGDTDYDYWGQGTQVTVSS	low polyreactivity
QVQLVESGGGLVQAGGSLRLSCAASGSIFGVNAMGWYRQAPGKERELVATIRQRGTSTYNADSVKGRFTISRDTAKNTVYLQMNSLKPEDTAVYYCAARGGVLKGYYYWGQGTQVTVSS	high polyreactivity

Query: Give a short answer stating reported polyreactivity (PSR sort gate) for `QVQLVESGGGFVQAGGSLRLSCAASGIIFDYDAMGWYRQAPGKERELVAAISKRGGSTYYADSVKGRFTISRDHAKNTVYFQMNSLKPEDTAVYYCAAVYAREAKRYDYWGPGTQVTVSS` .
Result: high polyreactivity

* * *

assay: yeast display, Sf9 membrane polyspecificity reagent, FACS + sequencing; frameworks hold sequencing errors
Measurement Kind: polyreactivity (PSR sort gate)

Solved cases (8 shown):
QVQLVESGGGLVQAGGSLRLSCAASGFIFGQYAMGWSRQAPGKERELVAAISESGGRTYYADSVKGRFTISRDNAKNTVYLQMNSLKPEDTAVYYCAADKSKYRAFDYWGQGTQVTVSS	high polyreactivity
QVQLVESGGGLVQAGGSLRLSCAASGRIFFIYAMGWYRPAPGKERELVAAISSSGGTTYYADSVKGRFTISRDNAKNTVYLQMNSLKPEDTAVYYCAARSAATHWTFLFYYDFDYWGQGSQVTVSS	low polyreactivity
QVQLVESGGGLVQAGGSLRLSCAASGRTFYYAMGWYRQAPGKERYADSVKGRVTISRDNAKNTVYLQMNSLKPEETAVYYCAAKVPEPPSLDESDYWGQGTQVTVSS	low polyreactivity
QVQLVESGGGLVQAGGSLRLSCAASGRTFYFYAMGWYRQAPGKERELVAAITSRVGRTYYADSVKGRFTISRDNAKNTVYLQMNSLKPEDTAVYYCAAEGVYRMGYWGQGTQVTVSS	high polyreactivity
QVQLVESGGGLVQAGGSLRLSCAATGSIFQSYAMGWYRQAPGKERELVAAITARGTSTYYADSVKGRFTISRDNAKNTVYLQMNSLKPEETAVYYCNTDRSRSPGDVESPSDIKRDYWGQGTQVTVSS	low polyreactivity
QVQLGESVGGLVQAGGSLRLSCAASGFIIGYYAMGWYRPPPGTERELVAAISSTGGSTYYADSVKGRFTISRDNAKNTVYLQMNSLNPEDTAVYYCAKRFASYRYHPGYDYWGQGTQVTVSS	high polyreactivity
QVQHVESGGGLVQAGGSLRLSCAASGITFVDNAMGWYRQAPGKEREWVAVISSSGGSTYYADSVKGRFTISRDNAKNSVYLQMNSLKPEDTAVYYCAARNRFYRRPYDYWGQGTQVTVSS	high polyreactivity
QVQLVESGGCLVQAGGSLRLSCAASGRTFSIYAMGWYRQAPGKEWELVASINGSGGSTYYADSVKGRFTISRDIAMNTVYLQMNSLKPEDTAVYYCAARASPRFNYWGQGSQVTVSS	high polyreactivity

State recorded polyreactivity (PSR sort gate) for all listed sequences.
1. QVQLVDSGGGLVQAGGSLRLSCAASGRTFKPYTMGWYRQAPGKERDLVAAISARGVSTYYADSVKGRFTISRDNAKNTGYLQMNSLKPEDTAVYYCNRVYFIGYRVFPPPMDYWGQGTQVTVSS
2. QVQLVESGGGLVQAGGSLRLSCAASGSTFYASVMGWYRQAPGKERELVAGITWYGGSTYYADSVKGRFTISRDNAKNTVYLQMNSLKPEDTAVYYCAADYYNTYGYDYCGQGTQVTVSS
3. QVQLVESGGGLVQAGGSLRLSCAASGRILVLNAMGWYIQAPGKERELVADITSGGSTYYADSVKGRFTISRDNEKNTVYLQMISLKPEHTAVYYCAADWNTYPDYLQSYFVSYEYNYWGQGTLVTVSS

Result:
high polyreactivity
low polyreactivity
low polyreactivity

State recorded polyreactivity (PSR sort gate) for all listed sequences.
1. QFQLVEAGGGLVQAGGSLRLSCAASGSIIPNYNMGWYRQAPAKETELVAAMSISGGTTYYADSVKGRFTISRDNAKNTVYLQMNSLKPEETAVYYCAAVEYYWFLGYYYRYDYWGQGTQVTVSS
2. QVQLVESGGGLVHAGGSLRLSCAASGRTFTRNAMGWYRQAPGKERELVAAISISGGRTYYADSVKGRFTISRDNAKNTVSLQMNSLKPEDTAVYYCANVTTSKYDYDYWGQGTQVTVSS
3. QVQLVESGGGLVQAGGSLRLSCAASGRIFSNYAMGWYRPAPGKESELVAAISRGGGRTFYADSVTGRFTISRDNAKNTVYLQKNSLKPEDTAVYYCATRSYYVKGDYWGQATQVTVSS
4. QVQLVESGGGLVQAGGSLRLSCAASGSTFGYYAMGWYRQAPGKERELVAGITSGGSTYYADSVKGRFTISRDNAKNTVYLQMNSLKPEDTAVYYCAKPVRHYRGRYFKYDYWGQGTQVTVSS

Result:
["high polyreactivity", "high polyreactivity", "high polyreactivity", "high polyreactivity"]
